Recorded values, source the supplement of paper PMC9170038.

- Tested on: MS2 coat protein
- measurement-notes: apparent KD of MS2 coat protein, switch OFF state (with FMN for OFF switches, without FMN for ON switches); designed switch direction (-1 OFF switch, 1 ON switch): -1; higher = weaker reporter binding
- condition-parameters: FMN input: 0 or 200 uM; Eterna round: R93 (includes R88 designs)
Entries annotated with measured apparent KD of MS2 coat protein

biosequence	unit-string	apparent KD of MS2 coat protein
AAAAGGAUAGGAUAUACAUGAGGAUCACCCAUGUGAAUAAAUAAAAUAAAUAAAUAAAGUAGAAGGGUCAAUAA [LROPPY Exclusion 3 - v05_deltaG=3.6 break up the As]	nM	25.4
AGGAAACAUGAGGAUCACCCAUGUGAGGAUAUAGGAAAGAAAAGAAAAGAAAGAAGAAUUAGAAGGCACAAGAA [Djet]	nM	14.9
AAAAAACAUGAGGAUCACCCAUGUGAGGAUAUGCUAAAAAAAAUAAAAAUAAAACAUAGCAGAAGGCACACCAA [Amethyst 57]	nM	38.4

====

- Tested on: MS2 coat protein
- measurement-notes: apparent KD of MS2 coat protein; designed switch direction (-1 OFF switch, 1 ON switch): 1; higher = weaker reporter binding
- condition-parameters: Eterna round: R95; input ligand: microRNA oligo, concentration not stated
Decide using apparent KD of MS2 coat protein: a value greater than or equal to 20 nM is true (1), a smaller one is false (0).

biosequence	category
AGUCCAGCCUGAGCUGGACAAAGGCAUGUACAUGAGGAUCACCCAUGUCAUGUACAAGCUUUUUGCUCGUCUUAAUA [Zipper 49 - 1] (puzzle: Sensor for hsa-mir-208a)	false (0)
AGUCCUGAAAGGAAAAUUAUAAGUGAUGUACAUGAGGAUCACCCAUGUCAUGUACAAGUUCUAUGCUCGUCUUAUAA [Sensorship 25 - Jieux - Sensor for hsa-mir-208a] (puzzle: Sensor for hsa-mir-208a)	true (1)
GUGCAACCGUGUGAGGAUAUCGGUGGUAAAACAUGAGGAUCACCCAUGUCCGAAGCUCGGACCUCCGAGAAGGCGCACAGUUGCA [Same State 2 - Mod of Erisin v.1] (puzzle: Same State 2)	false (0)
CGUCCAGCCUGAGCUGGACAAAAGCAUGUACAUGAGGAUCACCCAUGUUCAUGUACAAGCUUUUUGCUCGUCUUAGU [salish99_208a_r3_073] (puzzle: Sensor for hsa-mir-208a)	false (0)
AUAAGGCAAGCUUUUUUCUCGUAGUGUAAACAUGAGGAUCACCCAUGUGCCCGCUCUGGAUCUUUGGAUCGCAGAAA [Lavegeaus] (puzzle: Sensor for hsa-mir-208a)	false (0)
GCCACACAUGAGGAUCACCCAUGUAAUUACAUGGGAGGAUAUCAGUGCUCGAAAGAGCACUGAGAAGGCCCGUGGC [SS1 - Omei A v4] (puzzle: Same State 1)	true (1)
CGUCCGGCCUGUGCUGGCCGGAAGCAUGUACAUGAGGAUCACCCAUGUUCAUGUGCUGGCUUUUUGCUCGUCUUGUG [salish99_mir208a_011] (puzzle: Sensor for hsa-mir-208a)	false (0)
AAAGCACAUGAGGAUCACCCAUGUGGAAAUAACACAGGAUAUCCGGCCGAAACUAAGGUGGGAGAAGGGUGACCUA [Aeriste] (puzzle: Same State 1)	true (1)
CGUCCGGCCUGUGCUGGCCGGUCGCUUGUACAUGAGGAUCACCCAUGUUCUUGUGCUGGCUUUUUGCUCGUCUUGUG [salish99_mir208a_020] (puzzle: Sensor for hsa-mir-208a)	false (0)
AACGUUGGCGAGCAGGAUAUCCGCUCAUUAACAUGAGGAUCACCCAUGUUCUGCAAGAUGUGCUAGGAGAAGGGCUGGUCGACAU [Edatar] (puzzle: Same State 2)	false (0)

====

- Tested on: MS2 coat protein
- measurement-notes: apparent KD of MS2 coat protein; designed switch direction (-1 OFF switch, 1 ON switch): 1; higher = weaker reporter binding
- condition-parameters: input ligand: microRNA oligo, concentration not stated
param class (str): category from apparent KD of MS2 coat protein; see ranges bin 0 (below 40 nM), bin 1 (40 nM to below 60 nM), bin 2 (60 nM or more)

biosequence	category
GCCGCGUUUCGCGCCUACAUGAGGAUCACCCAUGUUUGUAGGCAGGAUAUCGUCCGCUUUGCGGGCGAGAAGGGCUGUUGUGGC [salish99_SSNG3_R04_021] (Eterna round: R96, puzzle: Same State NG 3)	bin 1
AAUUAAGAUCGAGGAUAUCACGUCGAAUAGACGUGAGAAGGCGAUCAUAACAUGAGGAUCACCCAUGUAUUACAUGAAUUAAUU [SSNG1/4-B1] (Eterna round: R96, puzzle: Same State NG 1)	bin 0
CCUUAGUACAAUUUAGAUCUACAUGAGGAUCACCCAUGUACUGAGGAUAUCAGCUCGAAUAGAGCUGAGAAGGCAGAAGUACUU [SSNG3/7-A1] (Eterna round: R96, puzzle: Same State NG 3)	bin 2
UUCUCCUUUUUUUACAUGAGGAUCACCCAUGUUUUUCUUACGUAGGAUAUCGUUGAGUGUUUGUACGAGAAGGACGUAGUAAGU [JR_SSND3_Sub059] (Eterna round: R96, puzzle: Same State NG 3)	bin 1
AGAUCAUGACGAGGAUAUGGUACAUGAGGAUCACCCAUGUAUGUACUAUAAUUCGAAUGAGGAAUCCAGAAGGCGUCGUGGUCA [JL SSNG2 1.15] (Eterna round: R96, puzzle: Same State NG 2)	bin 0
UAAUGUUUGCGAGGAUAUCGUUUAUUGAAGUUACGAGAAGGCGCUCUUCUUACAUGAGGAUCACCCAUGUCUGUUUUGCAUGAU [JR_SSNG1_Sub069] (Eterna round: R96, puzzle: Same State NG 1)	bin 1
UUAAUUAAUUAAUUAUACAUGAGGAUCACCCAUGUAAGUGAUCAGGAUAUCAGCUCGUUUAGAGCUGAGAAGGGAUACAUGUAA [SSNG3/13-A3] (Eterna round: R96, puzzle: Same State NG 3)	bin 2
ACAUGAGAAUUAGGAUAUAUAGUACCUACAUGUGACAUGAGGAUCACCCAUGUGGUAAGUAUGACAUAGAAGGAAUAGAUAUGU [Equivalance 97 - Jieux - Same State NG 2] (Eterna round: R96, puzzle: Same State NG 2)	bin 1

====

- System: MS2 coat protein
- measurement-notes: apparent KD of MS2 coat protein; designed switch direction (-1 OFF switch, 1 ON switch): -1; higher = weaker reporter binding
- condition-parameters: Eterna round: R95; input ligand: microRNA oligo, concentration not stated
Parameter: apparent KD of MS2 coat protein. Scope: all listed entries.
recorded-endpoint: apparent KD of MS2 coat protein (µM)

biosequence	unit-string	experimental-value
CUUUUGUGAGGAUAUCAGUAUUAAAAAAAUAAAAUUACUACUGAGAAGGCACAUGAGGAUCACCCAUGUUCCUC [salish99_ex4_r3_032] (puzzle: Exclusion 4)	µM	0.0344
GGAAAACAUGAGGAUCACCCAUGUAAGGAUAUGCAAAAGGAUAUAGAAGGAAAAAAAAGCAGAAGGUACAAAGG [salish99-ex1_r3_094] (puzzle: Exclusion 1)	µM	0.0363
GAAAAGGUAGGAUAUACGAAAAGAAAGGGUAGAGAAGAAACACAUGAGGAUCACCCAUGUAGAAGGACCAAAAG [salish99_ex2_r3_098] (puzzle: Exclusion 2)	µM	0.0264
GUGUAGCAAGGAUAUACAUGAGGAUCACCCAUGUGAAUAAGAUAGAAUAAGAUAAAGUGUAGAAGGUGUAGUGU [Excluse me!!! 10 - Jieux - Exclusion 3] (puzzle: Exclusion 3)	µM	0.0372
UUCCUCGUUGUGAGGAUAUCGUAUUCUUUUUGUUACGAGAAGGCACAUGAGGAUCACCCAUGUUUCUUGAUGUU [JR_BMOE4_Sub069] (puzzle: Brourd's mod of Exclusion 4)	µM	0.0196
CUAGUCCGAGGAUAUAUUAAGUGAAACAUGAGGAUCACCCAUGUUAUUUGAUGGAUGAAAAUAGAAGGCGGACUAG [Mat - Exclusion 5 - JL mod - D60] (puzzle: Exclusion 5)	µM	0.0469
GUUAGUAUCUAGGAUAUCUAGUACAUAGUAUCUAGAGAAGGAGAUACAUGAGGAUCACCCAUGUUCUGUGUUCU [Exclusion 6 - 1:c] (puzzle: Exclusion 6)	µM	0.022
AUUAGUAUCUAGGAUAUCUAGUACAUAGUAUCUAGAGAAGGAGAUACAUGAGGAUCACCCAUGUUCUGUGUUCU [Exclusion 6 - 1:d] (puzzle: Exclusion 6)	µM	0.0203
CUAGUCCGAGGAUAUAUUAUGUGAUACAUGAGGAUCACCCAUGUUAUAUGAUGGAUAUUAAUAGAAGGCGGACUAG [Mat - Exclusion 5 - JL mod - D74] (puzzle: Exclusion 5)	µM	0.0683
ACUCGAGAAGGAUAUACAUGAGGAUCACCCAUGUUAACUCCCAAGGGCAUCUUAAAAGGUAGAAGGUCUUGAAA [Laonbeus] (puzzle: Exclusion 3)	µM	0.014
CAUACUGAAGUUAGGAUAUGCGGCCGAAUACGGGUGUAGAAGGGACAUGAGGAUCACCCAUGUAGAUAGUAAAG [EX-4 Malc #16] (puzzle: Brourd's mod of Exclusion 4)	µM	0.0249
UCGGCGCGAGGAUAUGCGGCUGGUGCUUCGGGCCCUCGCGUACAUGAGGAUCACCCAUGUAGAAGGCGCGCCGC [Apr-15 SS2-43] (puzzle: Exclusion 2)	µM	0.0205
CUCUUGUCAGGAUAUCUAAGCUGCCUCCCAGUAGCCGAAUUAGAGAAGGGACAUGAGGAUCACCCAUGUAAACG [Enaeren] (puzzle: Exclusion 4)	µM	0.106
GAGUAGGGAGGAUAUACGUGCUCAAUCCCGGAAAGCGGGAAACAUGAGGAUCACCCAUGUAGAAGGCCCAUAAA [Riisen] (puzzle: Exclusion 2)	µM	0.0684
UUUUAACAUGAGGAUCACCCAUGUGAGGAUAUCGAAAUUUAUAUUAAUAUUAUUUAUUCGAGAAGGCACAUUUU [JMF 45] (puzzle: Exclusion 1)	µM	0.118
CCGGAAAUGGAGGAUAUCGUAUCGGAUACGAUACGAGAAGGCUAUACAUGAGGAUCACCCAUGUGUCCUACCGG [Fiskers Ex 6 - 5] (puzzle: Exclusion 6)	µM	0.0126
AAUAACAGAGGAUAUACUGUUUUAUGUGUUUGUUAUUUUGAACAUGAGGAUCACCCAUGUAGAAGGCUGAAUGA [JMF 64] (puzzle: Exclusion 2)	µM	0.0271
GCCGUUAAAGGAUAUACAUGAGGAUCACCCAUGUCGGUAUAAAAUUUACCGCCUCCCUGUAGAAGGUUAAGGCA [Xebiatorer] (puzzle: Exclusion 3)	µM	0.0161
CAAAAGGAAGGAUAUACAUGUUAAUUAUCCGAAGAUGUCGUACAUGAGGAUCACCCAUGUAGAAGGUCCAAAAC [Tiesbiused] (puzzle: Exclusion 2)	µM	0.0271
UUUAAUUUUUUUUUUUUACAAGCUUUUUGCUCGUCUUAUACAUGAGGAUCACCCAUGUAGAUGGAGGAUAAAUUAUC [JMF 32] (puzzle: Sensor v3, turn-off variant 2)	µM	0.0289
GGUUGGCGAGGAUAUACAUGAGGAUCACCCAUGUGAGAGAAAAAAGUCAGGAAGAAAAGUAGAAGGCGCUGACG [salish99_ex3_r3_028] (puzzle: Exclusion 3)	µM	0.0217
AGUACUAACACGAAAGUGUUAGUACAAUAAGCUUGUGAAACAUGAGGAUCACCCAUGUCCUCAUUAGCUCGUCUUAU [salish99_TOv2_r3_050] (puzzle: Sensor v3, turn-off variant 2)	µM	0.451
